- run.description: Example 13: single 150 mg dose of Modified-Release Coated Tablets in healthy elderly male volunteers, plasma pharmacokinetics
- Type: in vivo
- experimental.conditions: male, human, po, 150 mg, single oral 150 mg (3 × 50 mg Table 5 tablets), elderly male subjects, Fed Conditions, n = 10, mean, read-out: AUC0-Tlast
endpoint.label: AUC(0-t) (ng·h/mL)
Give bare numbers, in ng·h/mL.

Per the records, this molecule ( "NCCCS(=O)(=O)O" ) has AUC(0-t) equal to 5160

* * *

- run.description: Example 12: Phase II pilot study in CAA patients with lobar cerebral hemorrhage, plasma pharmacokinetics
- Type: in vivo, human
- experimental.conditions: human, plasma, oral, 100 mg, 100 mg BID (Table 5 tablet), Week 0 (single dose), n = 7, mean
endpoint.label: Cmax (ng/mL)
Give bare numbers, in ng/mL.

Per the records, this compound ( "NCCCS(=O)(=O)O" ) has Cmax equal to 552

* * *

- run.description: Example 9 Part II: food effect, single oral 100 mg 3-APS in elderly subjects, plasma pharmacokinetics
- Type: in vivo
- experimental.conditions: both sexes, human, po, 100 mg, single oral 100 mg (Table 5 tablet), elderly male and female subjects, Fed Arm (high fat), n = 8, mean, read-out: AUC0-Tlast
endpoint.label: AUC(0-t) (ng·h/mL)
Give bare numbers, in ng·h/mL.

Per the records, this molecule ( NCCCS(=O)(=O)O [3-APS, 3-amino-1-propanesulfonic acid] ) has AUC(0-t) equal to 3400

* * *

- run.description: Example 9 Part II: food effect, single oral 100 mg 3-APS in elderly subjects, plasma pharmacokinetics
- Assay type: in vivo
- experimental.conditions: both sexes, human, po, 100 mg, single oral 100 mg (Table 5 tablet), elderly male and female subjects, Fasting Arm, n = 8, mean, read-out: AUC0-Tlast
endpoint.label: AUC(0-t) (ng·h/mL)
Answers are plain numbers, in ng·h/mL.

Per the records, this compound ( "NCCCS(=O)(=O)O" ) has AUC(0-t) equal to 3220

* * *

- run.description: Example 13: single 150 mg dose of Modified-Release Coated Tablets in healthy elderly male volunteers, plasma pharmacokinetics
- Assay type: in vivo
- experimental.conditions: male, human, po, 150 mg, single oral 150 mg (3 × 50 mg Table 5 tablets), elderly male subjects, Fed Conditions, n = 10, mean
endpoint.label: Cmax (ng/mL)
Answers are plain numbers, in ng/mL.

Per the records, this compound ( NCCCS(=O)(=O)O [3-APS, 3-amino-1-propanesulfonic acid] ) has Cmax equal to 980
